Let's look at some compounds and their measured growth.
# Tested on: OVCAR-5 ovarian
# protocol: NCI-60 one-dose screen, 48 h (100 = growth as untreated, 0 = no growth, -100 = all killed)
# measurement-conditions: 10 µM unless noted
About 83,000 compounds went through this panel and 20% of them were active in at least one assay; those are over-represented in the sample as a whole. Activity calls are given as the source filed them. The calls were made as follows: active = growth percent below 10; inactive = the rest.

Example cases with answers are listed next.
CN(C)CCCN(c1nc(C(Cl)(Cl)Cl)ns1)c1nc(C(Cl)(Cl)Cl)ns1 :: 66.5% (inactive)
Cn1ccc(=O)c(S(N)(=O)=O)c1 :: 94.3% (inactive)
CC(C)CSc1nc(NN)c(C#N)c(-c2ccc(F)cc2)n1 :: 89.4% (inactive)

Query: Entry CC(=O)Nc1ccc(/C=C/C(=O)c2ccccc2)cc1 : reported growth = ?
Result: 113% (inactive)

Query: Which value of growth has been reported for COc1ccc2c(c1)cn1c3ccc(OC)cc3[nH]c(=O)c21 in the records?
Result: 21.3% (inactive)

Query: May I ask what growth has been recorded for CCOC(=O)C1CCNC(=O)C1=O (stereo unspecified) ?
Result: 104% (inactive)

Query: Any idea what its growth is? The compound is O=C(c1ccccc1)C1OC1c1ccc([N+](=O)[O-])cc1 (stereo unspecified)
Result: 102% (inactive)

Query: Could you share which growth value was measured for Cc1cc(N/N=C/c2nc(-c3ccccc3)oc2C)c2cc(Cl)ccc2n1 ?
Result: -88.5% (active)

----------
Listed molecules paired with reported growth
# Test system: HS 578T breast
# protocol: NCI-60 one-dose screen, 48 h (100 = growth as untreated, 0 = no growth, -100 = all killed)
# measurement-conditions: 10 µM unless noted
Compounds without any hit were thinned out: in the full panel of roughly 83,000, 20% have a hit.
The figure you give is taken to be in %; do not add the unit.

Below: 5 molecules and their reported growth.
O=S(=O)(NCCCNc1nccc(-n2ccc3cccnc32)n1)c1ccc(Br)cc1 :: 103
C=C1c2nc3ccccc3n2C=C(c2ccc(Cl)cc2)N1Cc1ccccc1 :: 87
COc1cc(/C=C/C(=O)/C=C/c2cc(OC)c3c(c2)OCO3)cc2c1OCO2 :: 103
C=C[C@@H]1C[C@@H]2Cc3ccccc3N1O2 :: 100
CCOC(=O)/C(C#N)=C1/C(=O)Nc2ccccc21 :: 121

Query: Which measured growth value corresponds to O=C(CSc1nc2ccccc2[nH]1)c1ccc(N2CCOCC2)cc1 ?
Result: 99

Query: Param item = COc1cc(-c2nn(-c3cccc(NC(=O)Nc4cc(C(F)(F)F)cc(C(F)(F)F)c4)c3)cc2-c2ccncc2)ccc1Cl ; retrieve measured growth.
Result: -25.8

Query: Which growth reading was recorded for the molecule COc1ccc(/C=C2/C(=O)NC(SCC(=O)N3CCN(c4cc5c(cc4F)c(=O)c(C(=O)O)cn5C4CC4)CC3)=NC2N)cc1OC (stereo not given) ?
Result: 105

----------
# Test system: SN12C renal
# protocol: NCI-60 one-dose screen, 48 h
# measurement-conditions: 10 µM unless noted
# Protocol: Growth inhibition of the SN12C human tumor cell line is measured as a screen for anti-cancer activity. Cells are grown in 96 well plates and exposed to the test compound for 48 hours. Compounds are tested at a single concentration, which is 10^-5 M for most compounds. The reported endpoint is percent growth (GI% or GIPRCNT), where numbers from 0 - 100% represent growth inhibition, and numbers from -100% - 0 represent cell death. For example, a value of 40 represents 60% growth inhibition. […]
Compounds without any hit were thinned out: in the full panel of roughly 83,000, 20% have a hit. The source made the active and inactive calls. Rule for the calls: active = growth percent below 10; inactive = the rest.
Returns: one label drawn from active, inactive

Nc1cccc(-c2nc3sccn3c2-c2ccnc(NCCNS(=O)(=O)c3ccc(C(F)(F)F)cc3)n2)c1 :: inactive
CC(NNC(C)c1ccccc1)c1ccccc1 (stereo not given) :: inactive
COc1cccc(-c2nc3sccn3c2-c2ccnc(NCCCNS(=O)(=O)c3ccc(F)cc3)c2)c1 :: inactive
Cc1ccc(S(=O)(=O)/C(=C\c2ccc(Cl)cc2)C(=O)c2ccccc2)cc1 :: inactive

Query: State the result this test recorded for NC(=S)N/N=C1\CCCC(C(F)(F)F)C1 (stereo not given) .
Result: inactive

Query: Which outcome was assigned to COc1ccc(C2C=C(c3ccc(Cl)cc3)N=C3SC=C(C)N32)c(Br)c1 (stereo not given) in this test?
Result: inactive
